- target-system: Vascular endothelial growth factor receptor 2 (Homo sapiens, UniProt P35968)
- Sequence (P35968 whole entry): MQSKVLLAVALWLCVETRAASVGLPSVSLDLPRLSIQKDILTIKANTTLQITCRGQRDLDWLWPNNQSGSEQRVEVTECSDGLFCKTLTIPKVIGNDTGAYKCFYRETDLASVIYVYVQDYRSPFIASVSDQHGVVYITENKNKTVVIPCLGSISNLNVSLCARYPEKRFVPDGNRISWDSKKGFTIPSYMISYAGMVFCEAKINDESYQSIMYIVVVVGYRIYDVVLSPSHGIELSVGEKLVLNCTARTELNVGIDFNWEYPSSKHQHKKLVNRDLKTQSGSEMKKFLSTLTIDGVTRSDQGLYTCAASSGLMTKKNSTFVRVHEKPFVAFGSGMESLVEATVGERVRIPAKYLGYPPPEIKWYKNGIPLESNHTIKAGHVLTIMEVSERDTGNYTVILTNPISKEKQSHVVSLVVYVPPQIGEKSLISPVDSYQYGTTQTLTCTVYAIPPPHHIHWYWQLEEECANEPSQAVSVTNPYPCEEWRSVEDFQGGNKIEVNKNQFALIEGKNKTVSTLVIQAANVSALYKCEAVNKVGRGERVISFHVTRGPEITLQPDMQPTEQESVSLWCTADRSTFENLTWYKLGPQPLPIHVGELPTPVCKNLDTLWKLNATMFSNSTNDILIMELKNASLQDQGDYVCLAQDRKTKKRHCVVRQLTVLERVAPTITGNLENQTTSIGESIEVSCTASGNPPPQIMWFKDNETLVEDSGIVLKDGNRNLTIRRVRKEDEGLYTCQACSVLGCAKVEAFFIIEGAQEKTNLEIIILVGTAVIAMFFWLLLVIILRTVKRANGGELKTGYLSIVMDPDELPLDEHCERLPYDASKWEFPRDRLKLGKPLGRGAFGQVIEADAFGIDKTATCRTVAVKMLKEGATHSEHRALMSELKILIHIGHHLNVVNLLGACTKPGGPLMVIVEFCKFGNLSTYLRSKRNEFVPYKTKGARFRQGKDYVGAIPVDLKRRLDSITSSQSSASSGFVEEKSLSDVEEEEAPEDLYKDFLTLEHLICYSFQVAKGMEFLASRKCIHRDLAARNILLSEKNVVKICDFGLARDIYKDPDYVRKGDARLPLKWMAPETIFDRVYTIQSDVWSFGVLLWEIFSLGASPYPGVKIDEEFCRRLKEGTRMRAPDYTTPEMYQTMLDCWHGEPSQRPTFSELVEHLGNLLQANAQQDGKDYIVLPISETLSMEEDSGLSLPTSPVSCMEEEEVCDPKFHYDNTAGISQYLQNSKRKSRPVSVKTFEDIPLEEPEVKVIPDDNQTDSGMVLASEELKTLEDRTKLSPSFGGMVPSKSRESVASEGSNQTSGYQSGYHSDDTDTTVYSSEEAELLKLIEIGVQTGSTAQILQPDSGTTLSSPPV
measured-metric: IC50 (µM)

compound	measured-metric	observed-measurement
Cn1c2c(c3ccc(Cl)c(Cl)c31)C(C#N)C1(CCNCC1)NC2=O (racemic)	IC50	7.2

* * *

- target-system: Myosin light chain kinase family member 4 (Homo sapiens) (UniProt Q86YV6)
- Sequence (Q86YV6 whole entry): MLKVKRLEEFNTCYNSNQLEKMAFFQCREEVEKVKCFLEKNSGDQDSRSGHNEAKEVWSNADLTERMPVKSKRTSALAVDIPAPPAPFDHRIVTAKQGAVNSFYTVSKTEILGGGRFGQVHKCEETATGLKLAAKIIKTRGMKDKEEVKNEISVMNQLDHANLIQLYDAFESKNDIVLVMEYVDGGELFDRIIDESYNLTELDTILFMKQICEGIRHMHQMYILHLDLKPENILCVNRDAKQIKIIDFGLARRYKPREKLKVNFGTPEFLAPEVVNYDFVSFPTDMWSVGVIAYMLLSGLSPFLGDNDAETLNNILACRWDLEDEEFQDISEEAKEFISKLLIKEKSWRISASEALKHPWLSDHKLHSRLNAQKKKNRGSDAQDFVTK
- run-description: Binding affinity to SGK085 assessed as change in thermal denaturation at 10 uM by thermal stability shift assay
Consider the following compounds and their measured ΔTm readings.
measured-metric: ΔTm (°C)

compound	units-label	observed-measurement
CN1CCC2(CC1)NC(=O)c1c(c3ccc(Cl)c(Cl)c3n1C)C2C#N (racemic)	°C	1.5
Cn1c2c(Cl)c(Cl)ccc2c2cc[nH]c(=O)c21	°C	6.4
Cn1c2c(c3ccc(Cl)c(Cl)c31)C(C#N)C1(CCOCC1)NC2=O (stereo not given)	°C	0.5
Cn1c2c(c3ccc(Cl)c(Cl)c31)C(C#N)C1(CCCCC1)NC2=O (racemic)	°C	0.5
Cn1c2c(c3ccc(Cl)c(Cl)c31)C(CN)C(C)(C)NC2=O (racemic)	°C	0.2
